Assay notes: Cytotoxicity against BALB/c mouse lymph node cells at 10 uM after 24 hrs MTT assay
Readout type: OD
Answer as a number with no unit attached.

Recorded results for 6 compounds are shown here.
{"Smiles string": "Cc1ccc(-c2nnc(SCc3ccccc3[N+](=O)[O-])o2)c(O)c1", "OD": 0.74}
{"Smiles string": "COc1ccc(-c2nnc(SCc3ccccc3Cl)o2)c(O)c1", "OD": 0.89}
{"Smiles string": "COc1ccc(-c2nnc(SCc3cccc([N+](=O)[O-])c3)o2)c(O)c1", "OD": 0.86}
{"Smiles string": "Cc1ccc(CSc2nnc(-c3ccc(C)cc3O)o2)cc1", "OD": 0.65}
{"Smiles string": "Cc1ccc(-c2nnc(SCc3cccc([N+](=O)[O-])c3)o2)c(O)c1", "OD": 0.81}
{"Smiles string": "Cc1ccc(-c2nnc(SCc3ccc(F)cc3)o2)c(O)c1", "OD": 0.82}

# OD of COc1ccc(-c2nnc(SCc3ccc(Cl)cc3)o2)c(O)c1 = 0.87

// OD lookup, compound = COc1ccc(-c2nnc(SCc3ccc([N+](=O)[O-])cc3)o2)c(O)c1 , result: 0.83

Sure, the documented OD for COc1ccc(CSc2nnc(-c3ccc(C)cc3O)o2)cc1 is 0.83
